MEASUREMENT TARGET: recombinant human SAE enzyme (Homo sapiens)
MEASUREMENT DESCRIPTION: SAE HTRF Enzyme Assay
Format: biochemical
CONDITIONS USED: compound concentration 0.111 μM; read-out: Percent Inhibition
Protocol: The SAE enzymatic reaction totals 50 μl and contains 50 mM HEPES Hemisodium (pH 7.5), 0.05% BSA, 5 mM MgCl2, 0.5 μM ATP, 250 μM GSH, 0.01 μM Ubc9-GST, 0.125 μM Sumo-Flag and 0.11 nM recombinant human SAE enzyme. […] After incubation for 2 hours at 24° C., quantification of FRET is performed on the Pherostar™ (BMG Labtech). Percentage inhibition values at a single concentration or enzyme inhibition (IC50) values are determined from those curves. […]
Below, each entry is listed alongside its reported inhibition at 0.111 µM.

COMPOUND: NS(=O)(=O)OC[C@H]1C[C@@H](Nc2ccncc2C(=O)c2ccn(Cc3cccc(Cl)c3)n2)C[C@@H]1O
MEASUREMENT TARGET: recombinant human SAE enzyme (Homo sapiens)
inhibition at 0.111 µM (%): 99
//
COMPOUND: NS(=O)(=O)OC[C@H]1C[C@@H](Nc2ncncc2C(=O)c2ccn(Cc3ccc(F)c(C(F)(F)F)c3)c2)C[C@@H]1O
MEASUREMENT TARGET: recombinant human SAE enzyme (Homo sapiens)
inhibition at 0.111 µM (%): 99
//
COMPOUND: CC1CC1Cn1ccc(C(=O)c2cncnc2N[C@@H]2C[C@H](COS(N)(=O)=O)[C@@H](O)C2)n1 (stereo partly shown)
MEASUREMENT TARGET: recombinant human SAE enzyme (Homo sapiens)
inhibition at 0.111 µM (%): 58
//
COMPOUND: NS(=O)(=O)OC[C@H]1C[C@@H](Nc2ncncc2C(=O)c2ccn(Cc3cccc(Br)n3)n2)[C@H](O)[C@@H]1O
MEASUREMENT TARGET: recombinant human SAE enzyme (Homo sapiens)
inhibition at 0.111 µM (%): 100
//
COMPOUND: COCCn1ccc(C(=O)c2cncnc2N[C@@H]2C[C@H](COS(N)(=O)=O)[C@@H](O)C2)n1
MEASUREMENT TARGET: recombinant human SAE enzyme (Homo sapiens)
inhibition at 0.111 µM (%): 32
//
COMPOUND: NS(=O)(=O)OC[C@H]1C[C@@H](Nc2ncncc2C(=O)c2ccn(Cc3cccc(OC(F)F)c3)n2)[C@@H](F)[C@@H]1O
MEASUREMENT TARGET: recombinant human SAE enzyme (Homo sapiens)
inhibition at 0.111 µM (%): 99
//
COMPOUND: NS(=O)(=O)OC[C@H]1C[C@@H](Nc2ncncc2C(=O)c2cc(Cl)n(Cc3cccc(Br)c3)c2Cl)[C@@H](F)[C@@H]1O
MEASUREMENT TARGET: recombinant human SAE enzyme (Homo sapiens)
inhibition at 0.111 µM (%): 18
//
COMPOUND: Cc1ccc(F)c(Cn2ccc(C(=O)c3cncnc3N[C@@H]3C[C@H](COS(N)(=O)=O)[C@@H](O)C3)n2)c1
MEASUREMENT TARGET: recombinant human SAE enzyme (Homo sapiens)
inhibition at 0.111 µM (%): 98
//
COMPOUND: NS(=O)(=O)OC[C@H]1C[C@@H](Nc2ncncc2C(=O)c2ccn(Cc3cc(Br)ccc3F)n2)C[C@@H]1O
MEASUREMENT TARGET: recombinant human SAE enzyme (Homo sapiens)
inhibition at 0.111 µM (%): 100
//
COMPOUND: NS(=O)(=O)OC[C@H]1C[C@@H](Nc2ncncc2C(=O)c2ccn(CC#CC3CC3)n2)C[C@@H]1O
MEASUREMENT TARGET: recombinant human SAE enzyme (Homo sapiens)
inhibition at 0.111 µM (%): 95
//
COMPOUND: CC(c1cccc(Br)n1)n1ccc(C(=O)c2cncnc2N[C@@H]2C[C@H](COS(N)(=O)=O)[C@@H](O)C2)n1 (single isomer, unassigned)
MEASUREMENT TARGET: recombinant human SAE enzyme (Homo sapiens)
inhibition at 0.111 µM (%): 92
//
COMPOUND: NS(=O)(=O)OC[C@H]1C[C@@H](Nc2ncncc2C(=O)c2ccn(Cc3cccc(C(F)(F)F)c3)c2)[C@@H](F)[C@@H]1O
MEASUREMENT TARGET: recombinant human SAE enzyme (Homo sapiens)
inhibition at 0.111 µM (%): 99
//
COMPOUND: CC(c1ccccc1)n1ccc(C(=O)c2cncnc2N[C@@H]2C[C@H](COS(N)(=O)=O)[C@@H](O)[C@H]2O)n1 (single isomer, unassigned)
MEASUREMENT TARGET: recombinant human SAE enzyme (Homo sapiens)
inhibition at 0.111 µM (%): 97

* * *

Below, each entry is listed alongside its reported inhibition at 0.111 µM.
MEASUREMENT TARGET: recombinant human SAE enzyme (Homo sapiens)
MEASUREMENT DESCRIPTION: SAE HTRF Enzyme Assay
Type: biochemical
CONDITIONS USED: compound concentration 0.111 μM; read-out: Percent Inhibition

COMPOUND: NS(=O)(=O)OC[C@H]1C[C@@H](Nc2ncncc2C(=O)c2ccn(Cc3ccccc3C(F)(F)F)n2)[C@H](O)[C@@H]1O
inhibition at 0.111 µM [%]: 96

COMPOUND: NS(=O)(=O)OC[C@H]1C[C@@H](Nc2ncncc2C(=O)c2ccn(Cc3cccc(Cl)n3)c2)[C@@H](F)[C@@H]1O
inhibition at 0.111 µM [%]: 99

COMPOUND: NS(=O)(=O)OC[C@H]1C[C@@H](Nc2ncncc2C(=O)c2ccn(Cc3ccc(C(F)(F)F)cc3C(F)(F)F)n2)[C@H](O)[C@@H]1O
inhibition at 0.111 µM [%]: 87

COMPOUND: NS(=O)(=O)OC[C@H]1C[C@@H](Nc2ccncc2C(=O)c2ccn(Cc3ccc(Cl)c(Cl)c3)c2)C[C@@H]1O
inhibition at 0.111 µM [%]: 98

COMPOUND: NS(=O)(=O)OC[C@H]1C[C@@H](Nc2ncncc2C(=O)c2ccn(Cc3cccc4nccn34)c2)[C@@H](F)[C@@H]1O
inhibition at 0.111 µM [%]: 85

COMPOUND: NS(=O)(=O)OC[C@H]1C[C@@H](Nc2ncncc2C(=O)c2ccn(Cc3ccc(F)cc3Cl)n2)[C@H](O)[C@@H]1O
inhibition at 0.111 µM [%]: 100

COMPOUND: NS(=O)(=O)OC[C@H]1C[C@@H](Nc2ncncc2C(=O)c2ccn(Cc3cccc(OC(F)(F)F)c3)n2)C[C@@H]1O
inhibition at 0.111 µM [%]: 96

COMPOUND: NS(=O)(=O)OC[C@H]1C[C@@H](Nc2ncncc2C(=O)c2ccn(Cc3ccc(F)cc3C(F)(F)F)n2)[C@H](O)[C@@H]1O
inhibition at 0.111 µM [%]: 94

COMPOUND: NS(=O)(=O)OC[C@H]1C[C@@H](Nc2ncncc2C(=O)c2ccn(Cc3ccc(C(F)(F)F)o3)c2)C[C@@H]1O
inhibition at 0.111 µM [%]: 97

COMPOUND: NS(=O)(=O)OC[C@H]1C[C@@H](Nc2ncncc2C(=O)c2ccn(Cc3cc4ccccc4o3)c2)[C@@H](F)[C@@H]1O
inhibition at 0.111 µM [%]: 99

COMPOUND: NS(=O)(=O)OC[C@H]1C[C@@H](Nc2ncncc2C(=O)c2ccn(Cc3ccc(F)c(Br)c3)n2)[C@@H](F)[C@@H]1O
inhibition at 0.111 µM [%]: 99

COMPOUND: NS(=O)(=O)OC[C@H]1C[C@@H](Nc2ncncc2C(=O)c2ccn(CC3CCOC3)n2)C[C@@H]1O (mixture of isomers)
inhibition at 0.111 µM [%]: 16

COMPOUND: NS(=O)(=O)OC[C@H]1C[C@@H](Nc2ncncc2C(=O)c2ccn(C3(c4cccc(Cl)c4)CC3)c2)C[C@@H]1O
inhibition at 0.111 µM [%]: 90

* * *

MEASUREMENT TARGET: recombinant human SAE enzyme (Homo sapiens, UniProt Q9UBT2)
Sequence (Q9UBT2 whole entry): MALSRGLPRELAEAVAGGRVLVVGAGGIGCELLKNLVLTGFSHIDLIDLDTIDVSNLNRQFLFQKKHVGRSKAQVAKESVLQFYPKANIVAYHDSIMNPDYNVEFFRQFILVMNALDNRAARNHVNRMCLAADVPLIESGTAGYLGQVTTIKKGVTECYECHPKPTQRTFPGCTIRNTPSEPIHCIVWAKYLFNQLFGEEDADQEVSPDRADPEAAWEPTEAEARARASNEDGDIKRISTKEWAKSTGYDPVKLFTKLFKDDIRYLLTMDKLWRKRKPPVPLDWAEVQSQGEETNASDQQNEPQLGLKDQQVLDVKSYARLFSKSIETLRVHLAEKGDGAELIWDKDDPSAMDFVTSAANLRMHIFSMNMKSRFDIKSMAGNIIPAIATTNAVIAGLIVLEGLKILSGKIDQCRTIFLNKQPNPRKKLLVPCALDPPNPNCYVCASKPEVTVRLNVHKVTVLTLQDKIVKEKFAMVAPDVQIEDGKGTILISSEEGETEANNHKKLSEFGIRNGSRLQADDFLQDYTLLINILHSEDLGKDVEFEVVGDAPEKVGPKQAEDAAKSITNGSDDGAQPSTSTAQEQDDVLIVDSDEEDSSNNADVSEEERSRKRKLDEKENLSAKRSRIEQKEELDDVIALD
Sequence (Q9UBE0 whole entry partner): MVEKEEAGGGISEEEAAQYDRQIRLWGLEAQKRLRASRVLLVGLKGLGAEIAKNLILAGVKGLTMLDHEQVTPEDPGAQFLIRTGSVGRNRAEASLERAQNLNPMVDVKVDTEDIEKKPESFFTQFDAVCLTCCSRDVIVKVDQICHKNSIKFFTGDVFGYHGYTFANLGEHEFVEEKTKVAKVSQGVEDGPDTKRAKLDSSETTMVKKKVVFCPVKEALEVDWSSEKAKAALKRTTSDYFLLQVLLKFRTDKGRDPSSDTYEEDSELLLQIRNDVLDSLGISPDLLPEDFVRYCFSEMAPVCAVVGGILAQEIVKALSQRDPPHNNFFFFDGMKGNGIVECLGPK
MEASUREMENT DESCRIPTION: SAE HTRF Enzyme Assay
CONDITIONS USED: class symbols A-C
VALUE TYPE: IC50

COMPOUND: CC(C)(C)C#CCn1ccc(C(=O)c2cncnc2N[C@@H]2C[C@H](COS(N)(=O)=O)[C@@H](O)[C@@H]2F)c1
VALUE TYPE: IC50
RESULT: 0.01 to 0.1 µM
//
COMPOUND: CCC#CCn1ccc(C(=O)c2cncnc2N[C@@H]2C[C@H](COS(N)(=O)=O)[C@@H](O)C2)n1
VALUE TYPE: IC50
RESULT: 0.01 to 0.1 µM
//
COMPOUND: NS(=O)(=O)OC[C@H]1C[C@@H](Nc2ncncc2C(=O)c2ccn(Cc3ccc(C(F)F)o3)n2)C[C@@H]1O
VALUE TYPE: IC50
RESULT: < 0.01 µM
//
COMPOUND: CC(c1ccc(Cl)o1)n1ccc(C(=O)c2cncnc2N[C@@H]2C[C@H](COS(N)(=O)=O)[C@@H](O)C2)n1 (single isomer, unassigned) [Compound I-354]
VALUE TYPE: IC50
RESULT: 0.01 to 0.1 µM
//
COMPOUND: CC#CCn1ccc(C(=O)c2cncnc2N[C@@H]2C[C@H](COS(N)(=O)=O)[C@@H](O)C2)n1
VALUE TYPE: IC50
RESULT: 0.01 to 0.1 µM
//
COMPOUND: COCC#CCn1ccc(C(=O)c2cncnc2N[C@@H]2C[C@H](COS(N)(=O)=O)[C@@H](O)[C@@H]2F)c1
VALUE TYPE: IC50
RESULT: 0.01 to 0.1 µM
